- TARGET UNDER TEST: Heat shock protein HSP 90-beta (Homo sapiens, UniProt P08238)
- Sequence (P08238 whole entry): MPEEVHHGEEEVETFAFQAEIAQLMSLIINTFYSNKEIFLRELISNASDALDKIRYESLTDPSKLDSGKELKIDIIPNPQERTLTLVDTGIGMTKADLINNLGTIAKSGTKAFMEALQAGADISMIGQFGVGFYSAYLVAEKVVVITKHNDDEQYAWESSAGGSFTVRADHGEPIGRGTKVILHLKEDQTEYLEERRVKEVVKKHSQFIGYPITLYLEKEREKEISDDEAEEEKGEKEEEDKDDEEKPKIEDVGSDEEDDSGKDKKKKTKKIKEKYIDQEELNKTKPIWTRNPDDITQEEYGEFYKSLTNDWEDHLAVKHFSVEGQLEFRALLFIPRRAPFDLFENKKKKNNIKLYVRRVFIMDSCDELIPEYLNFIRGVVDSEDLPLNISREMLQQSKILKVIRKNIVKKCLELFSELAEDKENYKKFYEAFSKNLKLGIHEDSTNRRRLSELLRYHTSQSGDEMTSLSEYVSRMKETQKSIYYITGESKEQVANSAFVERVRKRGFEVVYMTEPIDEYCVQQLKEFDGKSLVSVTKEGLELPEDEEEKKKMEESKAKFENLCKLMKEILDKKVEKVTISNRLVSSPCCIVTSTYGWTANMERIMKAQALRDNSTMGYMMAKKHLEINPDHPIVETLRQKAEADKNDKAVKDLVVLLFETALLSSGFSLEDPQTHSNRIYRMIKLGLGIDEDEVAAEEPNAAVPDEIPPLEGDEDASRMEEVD
pKi: −log10 of the molar value.
METRIC: pKi

INSERT INTO results (input_smiles, recorded_result) VALUES
  ('CO[C@H]1/C=C\C=C(/C)C(=O)NC2=CC(=O)C(N)=C(C[C@@H](C)C[C@H](OC)[C@H](O)[C@@H](C)/C=C(\C)[C@@H]1OC(N)=O)C2=O', 7.68);

----------
- ASSAY TEXT: Cmax in plasma of mouse bearing human A2780 cells at 80 mg/kg, ip administered as DMSO/egg phospholipid formulation
- Assay type: ADME, organism-based
- Parameters: dose 80 mg/kg, route intraperitoneal
METRIC: Cmax (µM)

INSERT INTO assay_data (compound, metric, unit_tag, recorded_result) VALUES
  ('C=CCNC1=C2C[C@@H](C)C[C@H](OC)[C@H](O)[C@@H](C)/C=C(\C)[C@H](OC(N)=O)[C@@H](OC)/C=C\C=C(/C)C(=O)NC(=CC1=O)C2=O [TANESPIMYCIN]', 'Cmax', 'µM', 35),
  ('CO[C@H]1/C=C\C=C(/C)C(=O)NC2=CC(=O)C(N)=C(C[C@@H](C)C[C@H](OC)[C@H](O)[C@@H](C)/C=C(\C)[C@@H]1OC(N)=O)C2=O', 'Cmax', 'µM', 4.8);

----------
- ASSAY TEXT: Cmax in tumor of mouse bearing human WM266.4 cells at 50 mg/kg, ip
- Assay type: ADME, organism-based, Neoplasm
- Parameters: dose 50 mg/kg, route intraperitoneal
- MEASUREMENT SETUP: read-out: Cmax_tumor
METRIC: Cmax (µM)

INSERT INTO results (compound, metric, recorded_result) VALUES
  ('CCNC(=O)c1noc(-c2cc(C(C)C)c(O)cc2O)c1-c1ccc(CN2CCOCC2)cc1 [LUMINESPIB]', 'Cmax', 6);

----------
- ASSAY TEXT: AUC in plasma of mouse bearing human A2780 cells at 80 mg/kg, ip administered as DMSO/egg phospholipid formulation
- Assay type: ADME, organism-based
- Design: dose 80 mg/kg, route intraperitoneal
METRIC: AUC (µM·h)

INSERT INTO results (compound, metric, recorded_result) VALUES
  ('C=CCNC1=C2C[C@@H](C)C[C@H](OC)[C@H](O)[C@@H](C)/C=C(\C)[C@H](OC(N)=O)[C@@H](OC)/C=C\C=C(/C)C(=O)NC(=CC1=O)C2=O [TANESPIMYCIN]', 'AUC', 68),
  ('CO[C@H]1/C=C\C=C(/C)C(=O)NC2=CC(=O)C(N)=C(C[C@@H](C)C[C@H](OC)[C@H](O)[C@@H](C)/C=C(\C)[C@@H]1OC(N)=O)C2=O', 'AUC', 15);

----------
- ASSAY TEXT: Half life in mouse at 100 mg/kg, po
- Format: ADME, organism-based
- Parameters: dose 100 mg/kg, route oral
- MEASUREMENT SETUP: in vivo
METRIC: half-life (min)

INSERT INTO assay_data (molecule, recorded_result) VALUES
  ('COc1c(C)cnc(Cn2cnc3c(Cl)nc(N)nc32)c1C [BIIB021]', 48);
